Test system: CP250
Measurement Protocol: qHTS profiling for inhibitors of Plasmodium falciparum proliferation (AID 504749); also: nearly all actives have a fitted effect of over 60% in size
Condition Set: P. falciparum in erythrocytes, SYBR Green DNA, 72 h; series mostly up to 28.7 µM
Records with an inconclusive call do not appear. Active and inactive are the calls of the source. Calls follow the shape of the dose curve; as a rule, active = well fitted inhibition curve with a large enough effect; inconclusive = small, poorly fitted or top-dose-only effect; inactive = flat fitted curve, though single readings scatter.
Your reply should match one of these outcome classes. yes (1) (active), no (0) (inactive)

Problem: Please state the recorded outcome for this compound: CO[C@H](C(=O)[C@@H](O)[C@@H](C)O)C1Cc2cc3cc(O[C@H]4C[C@@H](O[C@H]5C[C@@H](O)[C@H](O)[C@@H](C)O5)[C@@H](O)[C@@H](C)O4)c(C)c(O)c3c(O)c2C(=O)[C@H]1O[C@H]1C[C@@H](O[C@H]2C[C@@H](O[C@H]3C[C@](C)(O)[C@H](O)[C@@H](C)O3)[C@H](O)[C@@H](C)O2)[C@H](O)[C@@H](C)O1 (some centres not stated)
Solution: yes (1)

Problem: Please state the recorded outcome for this compound: `CCOC(C)=O`
Solution: no (0)

Problem: Please state the recorded outcome for this compound: C[C@@H]1CCC2[C@@H](C)[C@@H](O)O[C@@H]3O[C@@]4(C)CC[C@@H]1[C@@]23OO4 (some centres not stated)
Solution: yes (1)

Problem: Please state the recorded outcome for this compound: NC(=O)c1ncn(C2OC(CO)C(O)C2O)n1 (configuration not stated)
Solution: no (0)

Problem: Please state the recorded outcome for this compound: `CC(=O)Oc1cc(C)c(OC(C)=O)c2ccccc12`
Solution: yes (1)

Problem: Please state the recorded outcome for this compound: `CCN(CC)CCOc1ccc(-c2nc3cc(Cl)ccc3s2)cc1`
Solution: no (0)

Problem: Please state the recorded outcome for this compound: `O=C(O)CN(CCN(CC(=O)O)CC(=O)O)CC(=O)O`
Solution: no (0)

Problem: Please state the recorded outcome for this compound: `C[C@H]1C[C@H]2[C@@H]3CCC4=CC(=O)C=C[C@]4(C)[C@@]3(F)[C@@H](O)C[C@]2(C)[C@@]1(O)C(=O)CO`
Solution: no (0)

Problem: Please state the recorded outcome for this compound: `CCN(CC)Cc1cc(Nc2ccnc3cc(Cl)ccc23)ccc1O`
Solution: yes (1)

Problem: Please state the recorded outcome for this compound: Cc1ccccc1OCC(O)CNCCOc1ccc(C(N)=O)cc1 (configuration not stated)
Solution: no (0)

Problem: Please state the recorded outcome for this compound: `CC1=C(/C=C/C(C)=C/C=C/C(C)=C/C=C/C=C(C)/C=C/C=C(C)/C=C/C2=C(C)C(=O)CCC2(C)C)C(C)(C)CCC1=O`
Solution: no (0)

Problem: Please state the recorded outcome for this compound: `O=S(=O)(O)O`
Solution: no (0)

Problem: Please state the recorded outcome for this compound: `CO[C@H]1C[C@@H]2CC[C@@H](C)[C@@](O)(O2)C(=O)C(=O)N2CCCC[C@H]2C(=O)O[C@H]([C@H](C)C[C@@H]2CC[C@@H](OCCO)[C@H](OC)C2)CC(=O)[C@H](C)/C=C(\C)[C@@H](O)[C@@H](OC)C(=O)[C@H](C)C[C@H](C)/C=C/C=C/C=C/1C`
Solution: yes (1)

Problem: Please state the recorded outcome for this compound: `O=C(Nc1ccc(Br)cc1)c1cc(Br)c(Br)s1`
Solution: no (0)

Problem: Please state the recorded outcome for this compound: `COCC(=O)Nc1cc(Sc2ccccc2)ccc1N=C(NC(=O)OC)NC(=O)OC`
Solution: no (0)

Problem: Please state the recorded outcome for this compound: `CC(C)(C)C(=O)OCOC(=O)[C@@H]1N2C(=O)[C@@H](N=CN3CCCCCC3)[C@H]2SC1(C)C`
Solution: no (0)

Problem: Please state the recorded outcome for this compound: Oc1cc(O)c2c(c1)OC(c1ccc(O)c(O)c1)C(O)C2 (configuration not stated)
Solution: no (0)

Problem: Please state the recorded outcome for this compound: `C=CCSSSCC=C`
Solution: no (0)

Problem: Please state the recorded outcome for this compound: `CC(C)N=c1cc2n(-c3ccc(Cl)cc3)c3ccccc3nc-2cc1Nc1ccc(Cl)cc1`
Solution: no (0)

Problem: Please state the recorded outcome for this compound: CCCCCCC(O)C/C=C/CCCCCCCC(=O)O (configuration not stated)
Solution: no (0)

Problem: Please state the recorded outcome for this compound: `CCOc1ccc(N=Nc2ccc(N)cc2N)cc1`
Solution: no (0)

Problem: Please state the recorded outcome for this compound: `CCCCCCCCCCCCCC[n+]1ccc(C)cc1`
Solution: yes (1)

Problem: Please state the recorded outcome for this compound: `CN=C(NC#N)Nc1ccc(C2=NNC(=O)C[C@@H]2C)cc1`
Solution: no (0)

Problem: Please state the recorded outcome for this compound: `Nc1c(N=Nc2ccc(-c3ccc(N=Nc4cc(S(=O)(=O)O)c5ccccc5c4N)cc3)cc2)cc(S(=O)(=O)O)c2ccccc12`
Solution: no (0)

Problem: Please state the recorded outcome for this compound: CCCCCC(CC)COC(=O)CC(C(=O)OCC(CC)CCCC)S(=O)(=O)O (configuration not stated)
Solution: no (0)

Problem: Please state the recorded outcome for this compound: CC1=CCC(C(C)(C)O)CC1 (configuration not stated)
Solution: no (0)

Problem: Please state the recorded outcome for this compound: `Cc1c(C)c2c(c(C)c1O)CC[C@@](C)(CCC[C@H](C)CCC[C@H](C)CCCC(C)C)O2`
Solution: no (0)

Problem: Please state the recorded outcome for this compound: `IC(I)I`
Solution: no (0)

Problem: Please state the recorded outcome for this compound: `O=C(O)c1cc(O)c2c(c1)[O][Bi][O]2`
Solution: no (0)

Problem: Please state the recorded outcome for this compound: `O=C1C(=O)c2ncccc2-c2cccnc21`
Solution: yes (1)

Problem: Please state the recorded outcome for this compound: `Nc1ncnc2c1ncn2[C@@H]1O[C@H](COP(=O)(O)OP(=O)(O)OP(=O)(O)O)[C@@H](O)[C@H]1O`
Solution: no (0)

Problem: Please state the recorded outcome for this compound: CCCC(=O)Nc1ncnc2c1ncn2C1OC2COP(=O)(O)OC2C1OC(=O)CCC (configuration not stated)
Solution: no (0)

Problem: Please state the recorded outcome for this compound: COC(=O)[C@H]1[C@H]2CC3c4[nH]c5ccccc5c4CCN3C[C@@H]2CC[C@@H]1O (some centres not stated)
Solution: no (0)

Problem: Please state the recorded outcome for this compound: `CCCC(=O)O[C@]1(C(=O)CCl)[C@H](C)C[C@@H]2[C@H]3CCC4=CC(=O)C=C[C@]4(C)[C@@]3(F)C(=O)C[C@@]21C`
Solution: yes (1)

Problem: Please state the recorded outcome for this compound: `CC[C@@]1(O)C(=O)OCc2c1cc1n(c2=O)Cc2cc3c([N+](=O)[O-])cccc3nc2-1`
Solution: yes (1)

Problem: Please state the recorded outcome for this compound: `CCOc1ccc2c(c1)C(C)=CC(C)(C)N2`
Solution: no (0)

Problem: Please state the recorded outcome for this compound: `O=C(O)c1cc(=O)c2c3nc4ccccc4oc-3cc(=O)c2[nH]1`
Solution: no (0)

Sourced from PubChem BioAssay (NCATS)
